test: inhibitors of clade B AD8 Env fusion, dose response, cell-based, cherry-pick (AID 652062); type: functional;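 also: luciferase signal from cell-cell fusion driven by HIV-1 clade B AD8 Env; potency is for inhibitors of fusion seen as a drop in luminescence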
Active and inactive are the calls of the source.
Would you kindly list AC50 for each of these compounds?

// batch mode: one AC50 value per listed entry
1. O=C(CN1CCCN(Cc2ccc(F)cc2Cl)C1=O)NC1CCCCCCC1
2. CC1CCC(C(C)C)C(OC(=O)Cn2c(-c3ccccc3)[n+](C)c3ccccc32)C1 (centres undefined)
3. COc1cc(/C=N/O)ccc1OCc1ccc(C(=O)O)cc1
4. C[C@H](CO)N1C[C@H](C)[C@H](CN(C)Cc2cccc(F)c2)OCc2ccccc2-c2ccccc2C1=O

Result:
1. 44.3 µM (active)
2. 5.44 µM (active)
3. 1.49 µM (active)
4. < 0.26 µM (active)

----------
List of AC50 tested on Cytochrome P450 3A4 (Homo sapiens).
Sequence (P08684 whole entry): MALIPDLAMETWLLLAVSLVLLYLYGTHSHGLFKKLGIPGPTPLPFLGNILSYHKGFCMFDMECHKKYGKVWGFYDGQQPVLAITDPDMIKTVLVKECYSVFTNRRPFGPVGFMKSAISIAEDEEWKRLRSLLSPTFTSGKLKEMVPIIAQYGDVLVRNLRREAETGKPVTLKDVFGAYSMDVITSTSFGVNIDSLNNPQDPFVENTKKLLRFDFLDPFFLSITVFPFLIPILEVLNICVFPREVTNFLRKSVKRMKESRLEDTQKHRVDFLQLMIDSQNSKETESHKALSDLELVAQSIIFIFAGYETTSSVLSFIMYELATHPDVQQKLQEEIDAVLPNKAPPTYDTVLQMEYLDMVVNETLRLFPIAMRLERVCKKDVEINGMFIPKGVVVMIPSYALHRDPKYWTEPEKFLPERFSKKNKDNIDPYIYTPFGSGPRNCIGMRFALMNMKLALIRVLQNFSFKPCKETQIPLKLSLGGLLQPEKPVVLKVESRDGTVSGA

compound | AC50
COc1c(O)ccc2c1CN1CCc3cc4c(cc3[C@@H]1C2)OCO4 | 5.01 µM (inconclusive)

// batch mode: one AC50 value per listed entry
1. O=C(c1ccco1)N1CCC[C@@]2(CCN(Cc3nccs3)C2)C1
2. CCCc1cc(=O)[nH]c(SCc2cc(Cl)ccc2OC(F)F)n1

Result:
1: 7.94 µM (inconclusive); 2: 1.12 µM (inconclusive)

// batch mode: one AC50 value per listed entry
1. Cc1cccc(C(=O)ON=C(N)c2cccc([N+](=O)[O-])c2)c1
2. CC(C)OC(=O)CN1CCN(C2c3ccccc3-c3ccccc32)CC1
3. Cc1cccc(C)c1NC(=O)C[S+]([O-])CC(=O)NCCCc1ccccc1 (stereo not given)
4. Cc1c(C)n(C(=O)CN2CCC(C)CC2)c2ccccc12

Result:
1: 17.8 µM (inconclusive); 2: 25.1 µM (inconclusive); 3: 14.1 µM (inconclusive); 4: 17.8 µM (inconclusive)

----------
Would you kindly list IC50 for each of these molecules?
molecular target: Large T antigen (Simian virus 40); type: functional, Betapolyomavirus macacae;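 also: Confirmatory-stage PubChem screen for compounds that inhibit SV40 T antigen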
Sequence (P03070 whole entry): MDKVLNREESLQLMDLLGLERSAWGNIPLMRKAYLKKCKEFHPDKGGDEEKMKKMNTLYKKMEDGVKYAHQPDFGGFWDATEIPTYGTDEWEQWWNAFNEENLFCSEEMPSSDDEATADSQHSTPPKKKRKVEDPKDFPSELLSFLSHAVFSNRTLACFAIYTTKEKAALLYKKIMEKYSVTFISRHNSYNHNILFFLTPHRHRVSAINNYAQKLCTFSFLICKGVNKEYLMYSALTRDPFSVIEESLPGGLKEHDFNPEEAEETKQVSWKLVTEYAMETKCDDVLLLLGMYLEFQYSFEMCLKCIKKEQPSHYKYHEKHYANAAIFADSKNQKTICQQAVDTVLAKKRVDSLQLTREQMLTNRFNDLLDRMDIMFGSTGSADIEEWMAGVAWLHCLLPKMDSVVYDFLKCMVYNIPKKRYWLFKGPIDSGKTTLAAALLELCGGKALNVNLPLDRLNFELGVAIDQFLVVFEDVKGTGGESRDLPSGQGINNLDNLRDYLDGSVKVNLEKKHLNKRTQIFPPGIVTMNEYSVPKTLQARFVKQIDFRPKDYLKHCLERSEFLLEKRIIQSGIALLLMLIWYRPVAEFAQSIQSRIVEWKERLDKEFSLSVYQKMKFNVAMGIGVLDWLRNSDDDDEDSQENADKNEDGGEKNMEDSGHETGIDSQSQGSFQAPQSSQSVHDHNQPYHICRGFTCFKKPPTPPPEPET
Active and inactive are the calls of the source.

line-notation | observed-result
CCOc1ccc(/C=N/n2nnnc2N)cc1O | 9.64 µM (active)

// batch mode: one IC50 value per listed entry
1. Oc1ccc(/C=N/Nc2ccc(C(F)(F)F)cn2)cc1O
2. CCCCN1C(=O)/C(=C/C=C/c2ccco2)C(=O)NC1=S
3. CCOc1ccc(S(=O)(=O)Nc2cc(Sc3nnc[nH]3)c3oc(=O)sc3c2)cc1
4. CC(C)(C)c1cc(C(=O)N/N=C/c2ccc(O)cc2)n(-c2ccccc2)n1

Result:
["48.3 µM (active)", "7.95 µM (active)", "20.8 µM (active)", "46.2 µM (active)"]

Problem: Tell us which IC50 value is on record for `CC(=O)O[C@H]1C[C@@]2(C)[C@@H](C[C@@H](O)[C@H]3[C@@]4(C)CC[C@@H](O)[C@@H](C)[C@@H]4CC[C@@]32C)/C1=C(\CCC=C(C)C)C(=O)O`
Result: 20.4 µM (active)

----------
Would you kindly list AC50 for each of these compounds?
target: Cytochrome P450 3A4 (Homo sapiens);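 also: CYP3A4 tested as one member of a cytochrome P450 panel screen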

Would you please look over these solved cases?
compound | AC50
CCOc1cc2[nH]c(=S)n(CCC(=O)N3CCc4ccccc4C3)c(=O)c2cc1OCC | 3.55 µM (inconclusive)
Cc1ccc(C)c2sc(NC(=O)c3ccc(N4CCCCC4)c([N+](=O)[O-])c3)nc12 | 3.98 µM (inconclusive)
CC(C)(C)C(=O)Nc1nnc(SCC(=O)NCc2cccs2)s1 | 25.1 µM (inconclusive)
CSc1nc2n(n1)C(c1cc(Br)ccc1F)C(C(=O)N(C)C)=C(C)N2 (stereo not given) | 14.1 µM (inconclusive)

Now for a further compound.
Problem: Tell us which AC50 value is on record for `CC(C)(C)N=C(S)Nc1ccc(Nc2ccccc2)cc1`
Result: 11.2 µM (inconclusive)

----------
molecular target: Protein RecA (Mycobacterium tuberculosis, UniProt P9WHJ3); experiment: Fluorescence Cell-Free Homogeneous Dose Retest to Identify Inhibitors of RecA-Intein Splicing Activity. [Related pubchem assays (depositor defined):AID2097, AID2223, AID489010, AID492950]; assay type: functional
Calls of active or inactive are those of the source.
Would you kindly list EC50 for each of these molecules?

Would you please look over these solved cases?
molecule | observed-result
CC1Nc2ncnc(N3CCc4ccccc4C3)c2N(Cc2ccc(Cl)cc2)C1=O (stereo not given) | 30.9 µM (active)
CN1CCc2nc(SC(C(=O)O)c3ccccc3)c(C#N)c(-c3cccs3)c2C1 (stereo not given) | 12.3 µM (active)
Oc1c2c(nn1-c1ccccc1)CCSC2 | 13.7 µM (active)
CC1=C(CC(=O)c2ccc(Cl)cc2)C(=O)c2ccccc2C1=O | 1.24 µM (active)

// batch mode: one EC50 value per listed entry
1. O=C(CCl)N1CCN2C(=O)c3ccccc3C12c1ccc(Cl)cc1 (stereo not given)
2. CC(C)(C)c1[nH]nc2c1C(c1ccco1)C(C#N)=C(N)O2 (stereo not given)

Result:
1. 1.08 µM (active)
2. 1.21 µM (active)

// batch mode: one EC50 value per listed entry
1. CC1(C)CC(CCNC(=O)CCl)(c2ccccc2)CCO1 (stereo not given)
2. CS(=O)(=O)c1ccc(C(=O)OCc2nnc(-c3ccccc3)o2)cc1[N+](=O)[O-]
3. COc1cccc(-c2cc(O)[nH]n2)c1
4. N#Cc1nc(N)nc(N(c2ccccc2)c2ccccc2)n1

Result:
1. 14.5 µM (active)
2. 2.66 µM (active)
3. 0.757 µM (active)
4. 66.6 µM (active)

----------
Would you kindly list IC50 for each of these compounds?
assay: cells; format: functional
Activity calls are given as the source filed them.

line-notation | readout-type | observed-result
O=C(Nc1nc2ccccc2[nH]1)c1cccc([N+](=O)[O-])c1 | IC50 | 4.91 µM (active)
Cc1cccc(C(=O)Nc2nnc(-c3cccnc3)o2)c1 | IC50 | 9.52 µM (active)

// batch mode: one IC50 value per listed entry
1. Clc1c(OCCCn2ccnc2)ccc2ccccc12
2. COc1cccc(CN2CCC(N(CCc3ccccc3)Cc3ccccc3)CC2)c1OC

Result:
1: 9.76 µM (active); 2: 25.2 µM (active)

----------
biological target: Ubiquitin-conjugating enzyme E2 N (Homo sapiens); type: functional;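 also: Dose-response confirmation in a TR-FRET assay detecting UBC13-driven polyubiquitin chain formation, inhibition measured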
Sequence (P61088 whole entry): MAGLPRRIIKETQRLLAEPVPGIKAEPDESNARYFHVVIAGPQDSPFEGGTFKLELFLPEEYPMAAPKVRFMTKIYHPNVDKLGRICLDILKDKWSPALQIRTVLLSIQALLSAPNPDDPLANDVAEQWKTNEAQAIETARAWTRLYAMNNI
Active and inactive are the calls of the source.
Respond only with the outcome that fits, drawn from yes (1) for active, no (0) for inactive

Problem: Call for entry `O=C(CCc1ccccc1)NNC(=O)c1ccccn1` :
Result: no (0)

Problem: Call for entry `CCC(=O)NC(=S)NNC(=O)c1ccc([N+](=O)[O-])cc1` :
Result: no (0)

----------
Would you kindly list IC50 for each of these compounds?
target: Probable nicotinate-nucleotide adenylyltransferase (Staphylococcus aureus (strain N315), UniProt P65502); type: functional, Staphylococcus aureus subsp. aureus N315;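 also: confirmatory retest of primary uHTS inhibitor hits against NadD over a range of doses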
Sequence (P65502 whole entry): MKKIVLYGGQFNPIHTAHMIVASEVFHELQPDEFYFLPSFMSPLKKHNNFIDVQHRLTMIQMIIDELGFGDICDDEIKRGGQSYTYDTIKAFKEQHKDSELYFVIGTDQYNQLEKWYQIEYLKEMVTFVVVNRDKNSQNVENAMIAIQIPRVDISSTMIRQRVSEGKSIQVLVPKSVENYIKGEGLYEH
Active and inactive are the calls of the source.

Would you please look over these solved cases?
compound | observed-result
C#CCn1/c(=N/C(=O)c2cc(-c3cccs3)nc3ccccc23)sc2cc(S(N)(=O)=O)ccc21 | 12.8 µM (active)
Cc1ccccc1COc1ccc(C(=O)C2=C(O)C(=O)N(CCCn3ccnc3)C2c2ccco2)cc1 (configuration not stated) | 10.5 µM (active)
CCN1/C(=C/C=C/C=C/C=C/c2sc3ccccc3[n+]2CC)Sc2ccccc21 | 19.8 µM (active)

// batch mode: one IC50 value per listed entry
1. COc1ccccc1NC(=O)c1c(Nc2ccccc2C)sc(C(=O)Nc2cccc(Cl)c2)c1N
2. NC(CSC(c1ccccc1)(c1ccccc1)c1ccc(-c2ccccc2)cc1)C(=O)O (configuration not stated)
3. O=S(=O)(NC(=Nc1ccc(Cl)c(S(=O)(=O)Nc2ccccc2Cl)c1)c1ccc(F)cc1)c1ccccc1
4. Cc1cccc(-n2nc3c(c2NC(=O)c2ccc(Br)o2)CSC3)c1

Result:
1. 26 µM (active)
2. 11.5 µM (active)
3. 13.7 µM (active)
4. 4.58 µM (active)

----------
Molecular target: Mannose-6-phosphate isomerase (Homo sapiens, UniProt P34949)
Sequence (P34949 whole entry): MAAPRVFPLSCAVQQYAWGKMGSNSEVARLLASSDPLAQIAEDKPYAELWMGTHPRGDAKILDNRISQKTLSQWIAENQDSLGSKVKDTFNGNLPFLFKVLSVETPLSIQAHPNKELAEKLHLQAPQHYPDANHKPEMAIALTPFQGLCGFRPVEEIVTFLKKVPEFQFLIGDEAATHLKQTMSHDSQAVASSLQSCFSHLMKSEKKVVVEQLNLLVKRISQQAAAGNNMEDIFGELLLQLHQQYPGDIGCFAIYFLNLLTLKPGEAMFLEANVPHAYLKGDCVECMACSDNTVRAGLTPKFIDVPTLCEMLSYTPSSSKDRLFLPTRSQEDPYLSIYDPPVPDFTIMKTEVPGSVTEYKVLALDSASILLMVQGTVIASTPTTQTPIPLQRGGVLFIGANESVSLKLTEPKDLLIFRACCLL
Test: human PMI inhibitors, high substrate, primary screen, biochemical, fluorescence intensity, high mannose 6-phosphate (AID 1220)
Activity calls are given as the source filed them.
readout-type: IC50

Would you please look over these solved cases?
line-notation | IC50
CCOC(=O)c1c(C)oc2c1c1c(c3ccccc32)OCN(Cc2ccccn2)C1 | > 50 µM (not active)
CC1=C(C)/C(=N\OS(=O)(=O)c2ccc(C)cc2)C=CC1=O | 5.11 µM (active)
CN(C(=S)Nc1ccc(Oc2ccccc2)cc1)c1ccc(O)cc1 | > 50 µM (not active)

// batch mode: one IC50 value per listed entry
1. COc1ccc(NS(=O)(=O)c2ccc(N3CCCC3)c(NC(=S)Nc3cccc(C)c3C)c2)cc1
2. COc1ccc2c(c1)-c1nc(/N=C/c3ccc(O)cc3)sc1CC2

Result:
["> 50 µM (not active)", "> 50 µM (not active)"]
